// reported IC50 per item
Tested on: MYB mRNA
Assay: RT-qPCR splicing assay, MYB mRNA canonical (CJ) and alternative (AJ) junction
Assay type: cell-based, human
Settings: Homo sapiens, MYB canonical junction mRNA, RT-qPCR; read-out: MYB CJ (decrease in CJ mRNA levels, IC50)

Worked examples follow.
Cn1cc2cc(-c3ccc4nc(N5CC[C@@H](NC6COC6)C5)ccc4n3)c(O)cc2n1; 100 to 1000 nM
CN[C@@H]1CCN(c2ccc3nc(-c4cc5cn(C)nc5c(F)c4O)nc(C4CC4)c3c2)C1; < 100 nM
Cc1nc2c(F)c(O)c(-c3ccc4nc(N5CCC(NC6(C)CC6)C5)ccc4n3)cc2o1 (stereo not drawn) [Compound 325]; < 100 nM
Cc1c(O)c(-c2ccc3nc(N4CC[C@@H](NC(C)C)C4)ccc3n2)cc2cn(C)nc12 (single isomer, unassigned); < 100 nM
Cn1cc2cc(-c3ccc4cc(C5CCNCC5)c(F)cc4n3)c(O)cc2n1; > 10000 nM

## Task Report IC50 for Cn1cc2cc(-c3nc(C4CC4)c4cc(N5CCNCC5)ccc4n3)c(O)c(F)c2n1
## Result < 100 nM

## Task Read the entry CNC(=O)c1nc(-c2cc3cn(C)nc3c(C)c2O)nc2ccc(N3CCNC4(CC4)C3)cc12 and write its reported IC50.
## Result < 100 nM

## Task Specify IC50 for Cn1cc2cc(-c3ccc4nc(N5CC[C@@H](N[C@H]6C[C@H](F)C6)C5)ccc4n3)c(O)cc2n1 and stop.
## Result < 100 nM

## Task Supply recorded IC50 for CNc1nc(-c2cc3cn(C)nc3c(C)c2O)nc2ccc(N3CCNCC3)cc12 here.
## Result 1000 to 10000 nM

## Task Item Cc1cc2nc(-c3cc4cn(C)nc4c(C)c3O)cc(Cl)c2cc1N1CCNCC1 : provide IC50
## Result 100 to 1000 nM

## Task Retrieve IC50 measured for Cc1nc2c(C)c(O)c(-c3ccc4nc(N5CC[C@@H](NC6CC6)C5)ncc4n3)cc2o1 (single isomer, unassigned) and print it.
## Result < 100 nM

* * *

Test system: MYB mRNA
Experiment: RT-qPCR splicing assay, MYB mRNA canonical (CJ) and alternative (AJ) junction
Format: cell-based, human
Settings: Homo sapiens, MYB canonical junction mRNA, RT-qPCR; read-out: MYB CJ (decrease in CJ mRNA levels, IC50)
IC50 reference

COc1cc2nn(C)cc2cc1-c1ccc2cc(C3CCNCC3)c(F)cc2n1; > 10000 nM

## Task Answer with the recorded IC50 for the molecule listed here: Cc1nc2c(F)c(O)c(-c3ccc4nc(N5CC[C@@H](NC6CCC6)C5)ccc4n3)cc2o1 (single isomer, unassigned)
## Result < 100 nM

## Task Determine from records and report IC50 for Cc1nc2c(C)c(O)c(-c3ccc4nc(N5CCC(NCC6CC6)C5)ccc4n3)cc2o1 (stereo not drawn)
## Result < 100 nM

## Task Please give measured IC50 of the following entry: Cc1c(O)c(-c2ccc3nc(N4CC[C@H](NC5CC5)C4)ccc3n2)cc2cn(C)nc12
## Result < 100 nM

## Task Dear colleague, please send me the reported IC50 for Cn1cc2cc(-c3ccc4nc(C5CCNC[C@H]5O)ccc4n3)c(O)cc2n1 (single isomer, unassigned) when you can.
## Result 100 to 1000 nM

## Task Report IC50 for Cc1nc2cc(O)c(-c3ccc4nc(N5CC[C@@H](N[C@H]6C[C@H](F)C6)C5)ccc4n3)cc2o1 (single isomer, unassigned)
## Result < 100 nM

* * *

Items are presented alongside their recorded IC50.
Tested on: HTT mRNA
Test: RT-qPCR splicing assay, HTT mRNA canonical (CJ) and alternative (AJ) junction
Type: cell-based, human
Conditions: Homo sapiens, RT-qPCR, HTT canonical junction mRNA decrease; read-out: HTT CJ (decrease in canonical junction mRNA, IC50)

## Task Output IC50 of Cc1c(O)c(-c2nc(C3CCC3)c3cc(N4C[C@@H](C)N[C@@H](C)C4)ccc3n2)cc2cn(C)nc12 [Compound 790]
## Result 1000 to 10000 nM

* * *

Entries annotated with measured pIC50
Test system: MYB
Test: HiBiT protein abundance assay, MYB (K562 HiBiT knock-in)
Format: cell-based, human
Settings: HiBiT knock-in K562 cells, 24 hours, top dose 10 μM
pIC50: −log10 of the molar value.

// known answers, use as guide
Cn1cc2cc(-c3ccc4nc(N5CC[C@H](NC6CCC6)C5)ccc4n3)c(O)c(F)c2n1 (single isomer, unassigned); > 7.00
C[C@@H]1CN(c2ccc3nc(-c4cc5cn(C)nc5c(F)c4O)ncc3c2)C[C@H](C)N1; 5.00 to 6.00
CCNC1CCN(c2ccc3nc(-c4cc5cn(C)nc5cc4O)ccc3n2)CC1; 5.00 to 6.00
CN[C@@H]1CCN(c2ccc3nc(-c4cc5cn(C)nc5c(C)c4O)ncc3c2)C1 (single isomer, unassigned); > 7.00
Cc1nc2c(F)c(O)c(-c3ccc4nc(N5CC[C@@H](NC(C)(C)C)C5)ccc4n3)cc2o1 (single isomer, unassigned); > 7.00
Cc1nc2cc(O)c(-c3ccc4nc(N5CC[C@@H](NC6CC6)C5)ncc4n3)cc2o1 (single isomer, unassigned); 6.00 to 7.00
CC(C)N[C@H]1CCN(c2ccc3nc(-c4cc5cn(C)nc5cc4O)ccc3n2)C1; > 7.00
Cc1nc2c(C)c(O)c(-c3ccc4nc(N5CCC(NCC6CC6)C5)ccc4n3)cc2o1 (stereo not drawn); > 7.00
Cn1cc2cc(-c3cc4ccc(C5CCNCC5)nc4cn3)c(O)cc2n1; 5.00 to 6.00
COc1cc(-c2ccc3nc(N4CCC(NC(C)(C)C)C4)ncc3n2)cnn1 (stereo not drawn); 5.00 to 6.00

## Task Given the molecule Cc1nc2c(C)c(O)c(-c3ccc4nc(N5CCC(NC6CCC6)C5)ccc4n3)cc2o1 (stereo not drawn) , write its reported pIC50.
## Result > 7.00

## Task Return reported pIC50. Input molecule: Cc1nc2cc(O)c(-c3ccc4nc(N5CC[C@@H](NC6(C)CC6)C5)ccc4n3)cc2o1
## Result 6.00 to 7.00

## Task Name the recorded pIC50 of the item CN(C)C1CCN(c2ccc3nc(-c4cc5cn(C)nc5c(F)c4O)ncc3c2)CC1 in your answer.
## Result > 7.00

## Task Could you please provide reported pIC50 for Cc1nc2c(C)c(O)c(-c3ccc4nc(N5CC[C@@H](NC(C)(C)C)C5)ccc4n3)cc2o1 ? Thanks!
## Result > 7.00

## Task Specify reported pIC50 for the molecule shown: Cc1nc2cc(O)c(-c3ccc4nc(N5CC[C@H](NC6CCC6)C5)ccc4n3)cc2o1
## Result 6.00 to 7.00

* * *

Test system: HTT mRNA
Assay: RT-qPCR splicing assay, HTT mRNA canonical (CJ) and alternative (AJ) junction
Assay type: cell-based, human
Details: Homo sapiens, HTT canonical junction mRNA, RT-qPCR; read-out: HTT CJ (decrease in CJ mRNA levels, IC50)
Reported metric: IC50

CNC(=O)c1nc(-c2cc3cn(C)nc3c(C)c2O)nc2ccc(N3CC[C@@H](NC)C3)cc12; < 0.1 µM
Cc1c(O)c(-c2ncc3nc(C4CCNCC4)ccc3n2)cc2cn(C)nc12; 0.1 to 1 µM
COc1cc2ccncc2cc1-c1ccc2nc(N3CCC(NC(C)(C)C)C3)ccc2n1 (centres unmarked); > 10 µM

Could you now look at the following molecule, please?
## Task Indicate the recorded IC50 value for this molecule: Cc1nc2c(F)c(O)c(-c3ccc4nc(N5CC[C@H](NC6CC6)C5)ccc4n3)cc2o1
## Result < 0.1 µM

* * *

A collection of compounds and their measured IC50
System: MYB
Assay: HiBiT protein abundance assay, MYB (K562 HiBiT knock-in)
Format: cell-based, human
Conditions: HiBiT knock-in K562 cells, 24 hours, top dose 10 μM

Some solved entries appear below for comparison.
Cc1c(O)c(-c2ccc3cc(N4C[C@H](C)N[C@@H](C)C4)cc(F)c3n2)cc2cn(C)nc12 (single isomer, unassigned) [Compound 800, 2,2,2-trifluoroacetate]; < 100 nM
Cc1nc2c(C)c(O)c(-c3ccc4nc(N5CC[C@H](N[C@H]6C[C@@H](F)C6)C5)ccc4n3)cc2o1 (stereo in doubt) [Compound 377]; < 100 nM
Cn1cc2cc(-c3ccc4nc(N5CC[C@H](NC6CC(F)(F)C6)C5)ccc4n3)c(O)cc2n1 [Compound 384]; 1000 to 10000 nM

## Task Read off the recorded IC50 for CN(C)C1CCN(c2ccc3nc(-c4cc5cn(C)nc5cc4O)ccc3n2)CC1 [Compound 133]
## Result 1000 to 10000 nM
